molecular target: BRD4 BD1 (Homo sapiens, UniProt O60885); experiment: Isothermal titration calorimetry; type: binding; design: BRD4 BD1 (residues N44-E168) for structural studies was subcloned in the pNIC28-Bsa4 vector; His6 (followed by a TEV site) (N, cleaved yes); made in house; host or cells: Escherichia coli BL21(D3)-R3-pRARE2 Rosetta; conditions: 15 °C; read-out: ITC Kd BRD4 BD1
pKd: −log10 of the molar value.
Readout: pKd

> print(dat)
                                   compound  reported.measurement
1  Cn1cc(-c2ccc(C(=O)Nc3ccccc3N)nc2)c2cc[nH]c2c1=O [NB500]                  7.34

Data origin, for the record: paper PMC10878397
